Source of measurements: BindingDB's records for patent US10100058

Could you please report measured pIC50 for the items listed next?
# STUDY TARGET: Calcium/calmodulin-dependent protein kinase type II subunit delta (Homo sapiens)
# Sequence (Q13557 whole entry): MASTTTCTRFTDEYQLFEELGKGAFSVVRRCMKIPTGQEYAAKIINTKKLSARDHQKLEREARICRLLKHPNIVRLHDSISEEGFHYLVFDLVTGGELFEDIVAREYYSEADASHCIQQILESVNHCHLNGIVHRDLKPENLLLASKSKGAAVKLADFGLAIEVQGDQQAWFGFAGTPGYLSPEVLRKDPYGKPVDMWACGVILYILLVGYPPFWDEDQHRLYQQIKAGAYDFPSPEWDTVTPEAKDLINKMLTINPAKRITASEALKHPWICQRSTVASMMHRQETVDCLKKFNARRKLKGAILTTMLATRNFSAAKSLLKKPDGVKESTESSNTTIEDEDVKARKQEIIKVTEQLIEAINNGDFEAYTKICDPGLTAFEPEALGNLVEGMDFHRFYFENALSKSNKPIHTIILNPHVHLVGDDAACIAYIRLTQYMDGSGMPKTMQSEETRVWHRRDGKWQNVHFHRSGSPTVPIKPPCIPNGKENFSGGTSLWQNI
# TEST METHOD NOTES: CaMKII delta Biochemical Assay
Give bare numbers, as −log10 of the molar value.

COMPOUND: COC1CN(c2cc(C(=O)N3CC[C@H](N)C3)cc(-c3cnn4ccc(-c5cccs5)nc34)n2)C1
STUDY TARGET: Calcium/calmodulin-dependent protein kinase type II subunit delta (Homo sapiens)
OBSERVED: 8.03
//
COMPOUND: CCN(CC)[C@@H](C)CNC(=O)c1cc(-c2cnn3ccc(-c4cccs4)nc23)nc(N2CC(NS(=O)(=O)Cc3ccon3)C2)c1
STUDY TARGET: Calcium/calmodulin-dependent protein kinase type II subunit delta (Homo sapiens)
OBSERVED: 9.62
//
COMPOUND: CCC(N)CNC(=O)c1ccnc(-c2cnn3ccc(-c4cccs4)nc23)c1 (stereo not drawn)
STUDY TARGET: Calcium/calmodulin-dependent protein kinase type II subunit delta (Homo sapiens)
OBSERVED: 8.06
//
COMPOUND: CCN(CC)[C@@H](C)CNC(=O)c1cc(OCCN(C)C)nc(-c2cnn3ccc(-c4cccs4)nc23)c1
STUDY TARGET: Calcium/calmodulin-dependent protein kinase type II subunit delta (Homo sapiens)
OBSERVED: 10.00
//
COMPOUND: CC(C)(N)CNC(=O)c1ccnc(-c2cnn3ccc(-c4ccccc4)nc23)c1
STUDY TARGET: Calcium/calmodulin-dependent protein kinase type II subunit delta (Homo sapiens)
OBSERVED: 7.00
//
COMPOUND: CCN(CC)[C@@H](CO)CNC(=O)c1ccnc(-c2cnn3ccc(-c4ccccc4)nc23)c1
STUDY TARGET: Calcium/calmodulin-dependent protein kinase type II subunit delta (Homo sapiens)
OBSERVED: 8.47
//
COMPOUND: CCN(CC)[C@@H](C)CNC(=O)c1cc(-c2cnn3ccc(-c4cccs4)nc23)nc(N2CC[C@H]2C(=O)NCCO)c1
STUDY TARGET: Calcium/calmodulin-dependent protein kinase type II subunit delta (Homo sapiens)
OBSERVED: 9.48

// next entry
**Q:** What value of pIC50 has been reported for the following compound? CN(CCn1ccnc1)c1cc(C(=O)N2CC3CCC(C2)NC3)cc(-c2cnn3ccc(-c4cccs4)nc23)n1 (stereo not drawn)
**A:** 8.04
